target.under.test: RET(KD: 658-1114 G810R) (Homo sapiens, UniProt P07949, G810R)
Construct: 658-1114; expressed in transfected cells; host or cells: 293T.165 (293T cells, generated in-house)
Sequence (P07949 658-1114 G810R): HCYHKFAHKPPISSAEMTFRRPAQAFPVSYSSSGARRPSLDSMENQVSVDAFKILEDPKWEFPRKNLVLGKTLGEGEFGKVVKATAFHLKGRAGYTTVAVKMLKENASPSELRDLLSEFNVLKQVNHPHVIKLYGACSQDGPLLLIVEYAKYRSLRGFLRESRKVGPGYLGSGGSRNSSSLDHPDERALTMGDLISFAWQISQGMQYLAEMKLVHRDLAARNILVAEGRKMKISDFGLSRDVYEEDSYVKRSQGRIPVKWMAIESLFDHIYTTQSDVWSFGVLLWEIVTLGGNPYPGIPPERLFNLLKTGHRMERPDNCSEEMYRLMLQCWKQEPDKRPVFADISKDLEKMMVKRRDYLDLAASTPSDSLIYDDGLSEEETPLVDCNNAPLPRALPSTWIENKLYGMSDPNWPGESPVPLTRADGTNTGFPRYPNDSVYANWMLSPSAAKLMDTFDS
protocol.text: HiBiT-Degradation, RET G810R degradation assay (Nano-Glo HiBiT Lytic), 293T.165 cells
Format: cell-based
value.kind: 293T.165 RET(KD: 658-1114 G810R) 6.0 hours (IP) [nM]

>  <molecule>
CCC1(C(=O)NC2CCOCC2)CCN(c2ccc(-c3nc(-c4cnn([C@H]5CC[C@H](N6CCC(c7ccc(N[C@H]8CCC(=O)NC8=O)cc7F)CC6)CC5)c4)cn4ncc(C#N)c34)cn2)CC1 (stereo in doubt) [Compound 144]

>  <result>
++++ (<50 nM = ++++)

$$$$
>  <molecule>
N#Cc1cnn2cc(-c3cnn([C@H]4CC[C@@H](N5CCN(c6c(F)cc(NC7CCC(=O)NC7=O)cc6F)CC5)CC4)c3)cc(-c3ccc(N4CCC5(CC4)OCc4cccnc45)nc3)c12 (single isomer, unassigned) [Compound 202]

>  <result>
++++ (<50 nM = ++++)

$$$$

Every entry's value here was drawn from patent US12661410B2.
